meta.source: patent US9981940B2

test_description: log P by HPLC (OECD Guideline 117), method [a] acidic range
Assay type: physicochemical
measurement_conditions: HPLC, method [a] acidic range

{"columns": ["molecule", "logP[a]"],
 "data": [
  ["CC(C)(C)COc1nn(-c2cc(SCC(F)(F)F)c(Cl)cc2Cl)c(=O)n1C1CC1", 5.12],
  ["Cc1cc(F)c(-n2nc(C(F)(F)F)n(CC(F)(F)F)c2=O)cc1[S+]([O-])CC(F)(F)F (stereo not shown)", 3.20],
  ["COc1ccc(-n2nc(OC)n(C3CC3)c2=O)cc1[S+]([O-])CC(F)(F)F (stereo not shown)", 2.34],
  ["CCOc1nn(-c2cc([S+]([O-])CC(F)(F)F)c(C)cc2F)c(=O)n1C (stereo not shown)", 2.13]
]}

---

test_description: log P by HPLC (OECD Guideline 117), method [b] neutral range
Format: physicochemical
measurement_conditions: HPLC, method [b] neutral range
Criterion: logP[b] meeting or surpassing 4. Met: true. Not met: false.

{"columns": ["molecule", "answer_label"],
 "data": [
  ["Cc1cc(F)c(-n2nc(OCC3CC3)n(C)c2=O)cc1SCC(F)(F)F", "false"],
  ["Cc1cc(F)c(-n2nnn(-c3ccc(C(F)(F)F)cc3)c2=O)cc1[S+]([O-])CC(F)(F)F (racemic)", "false"],
  ["C=CCn1c([S+]([O-])C(C)C)nn(-c2cc([S+]([O-])CC(F)(F)F)c(C)cc2F)c1=O (centres unmarked)", "false"],
  ["Cc1cc(C)c(-n2nc(C(F)(F)F)n(C(C)(C)C)c2=O)cc1SCC(F)(F)F", "true"],
  ["Cc1cc(F)c(-n2nc(C)n(-c3ccccc3)c2=O)cc1[S+]([O-])CC(F)(F)F (racemic)", "false"],
  ["Cc1cc(F)c(-n2nc(C3CCC3)n(C3CC3)c2=O)cc1SCC(F)(F)F", "false"]
]}

---

test_description: log P by HPLC (OECD Guideline 117), method [b] neutral range
Format: physicochemical
measurement_conditions: HPLC, method [b] neutral range
Parameter logP[b]: see the listing below.

{"columns": ["compound", "logP[b]"],
 "data": [
  ["CCn1c(Cl)nn(-c2cc(SCC(F)(F)F)c(C)cc2F)c1=O", 3.40],
  ["O=c1n(-c2cc(SCC(F)(F)F)c(Cl)cc2Cl)nc(OCC(F)(F)F)n1C1CC1", 4.10],
  ["Cc1cc(F)c(-n2nc(C(F)(F)F)n(C(C)C)c2=O)cc1[S+]([O-])CC(F)(F)F (stereo not drawn)", 3.18],
  ["CCn1c([S+](C)[O-])nn(-c2cc([S+]([O-])CC(F)(F)F)c(C)cc2F)c1=O (stereo not drawn)", 1.61],
  ["Cc1cc(F)c(-n2nc(OC(C)C)n(C)c2=O)cc1[S+]([O-])CC(F)(F)F (stereo not drawn)", 2.44],
  ["Cc1cc(F)c(-n2nc(C3CC3)n(C(C)C)c2=O)cc1SCC(F)(F)F", 3.63],
  ["Cc1cc(F)c(-n2nc(C(F)(F)F)n(CC(F)(F)F)c2=O)cc1[S+]([O-])CC(F)(F)F (stereo not drawn)", 3.09],
  ["Cc1cc(F)c(-n2nc(C(F)(F)F)n(CC(F)(F)F)c2=O)cc1SCC(F)(F)F", 4.11],
  ["CCC(C)c1nn(-c2cc([S+]([O-])CC(F)(F)F)c(C)cc2F)c(=O)n1C1CC1 (racemic)", 2.79],
  ["Cc1cc(F)c(-n2nc(-c3ccc(Cl)cc3F)n(C)c2=O)cc1SCC(F)(F)F", 3.96],
  ["C=CCn1c(SC(C)C)nn(-c2cc([S+]([O-])CC(F)(F)F)c(C)cc2F)c1=O (racemic)", 3.17],
  ["Cc1cc(F)c(-n2nc(SCC(F)(F)F)n(C)c2=O)cc1SCC(F)(F)F", 3.45],
  ["Cc1cc(C)c(-n2ncn(Cc3ccccc3)c2=O)cc1SCC(F)(F)F", 3.47],
  ["Cc1ccc(-n2nc(-n3nc(Oc4ccccc4)n(C)c3=O)n(C)c2=O)cc1SCC(F)(F)F", 3.68],
  ["C=CCn1c(SCCC)nn(-c2cc([S+]([O-])CC(F)(F)F)c(C)cc2F)c1=O (stereo not drawn)", 3.33],
  ["Cc1cc(F)c(-n2nc(SCc3ccccc3)n(C)c2=O)cc1SCC(F)(F)F", 4.03],
  ["O=c1n(-c2ccc(Cl)c(SCC(F)(F)F)c2)nc(C(F)(F)F)n1C1CC1", 4.39],
  ["COC1=CC(=O)N(c2ccc(Cl)c([S+]([O-])CC(F)(F)F)c2)C1 (racemic)", 2.23],
  ["CCOCc1nn(-c2cc(SCC(F)(F)F)c(C)cc2F)c(=O)n1C1CC1", 3.27],
  ["Cc1cc(F)c(-n2nc(C3CC3)n(C)c2=O)cc1[S+]([O-])CC(F)(F)F (racemic)", 1.96],
  ["CCC(C)Oc1nn(-c2cc(SCC(F)(F)F)c(C)cc2F)c(=O)n1C1CC1 (stereo not drawn)", 4.30],
  ["COC1=CC(=O)N(c2cc(SCC(F)(F)F)c(Cl)cc2F)C1", 2.92],
  ["COC1=CC(=O)N(c2cc(SCC(F)(F)F)c(C)cc2C)C1", 2.81],
  ["Cc1cc(F)c(-n2ncn(-c3ccccc3)c2=O)cc1SCC(F)(F)F", 3.36],
  ["CCN(CC)c1nn(-c2cc([S+]([O-])CC(F)(F)F)c(C)cc2F)c(=O)n1N (stereo not drawn)", 2.18],
  ["Cc1cc(F)c(-n2nc(OC(C)C)n(C3CC3)c2=O)cc1SCC(F)(F)F", 3.85],
  ["C=CCn1c(C(F)(F)F)nn(-c2cc(SCC(F)(F)F)c(C)cc2F)c1=O", 4.04],
  ["COC1=CC(=O)N(c2cc(SCC(F)(F)F)c(C)cc2Cl)C1", 2.98],
  ["C=CCn1c(SC)nn(-c2cc([S+]([O-])CC(F)(F)F)c(C)cc2F)c1=O (stereo not drawn)", 2.48],
  ["Cc1cc(F)c(-n2nc(C(F)(F)F)n(N)c2=O)cc1SCC(F)(F)F", 3.08],
  ["CCOc1nn(-c2cc([S+]([O-])CC(F)(F)F)c(C)cc2F)c(=O)n1CC (stereo not drawn)", 2.44],
  ["Cc1cc(F)c(-n2nc(Br)n(C3CC3)c2=O)cc1SCC(F)(F)F", 3.38],
  ["Cc1cc(F)c(-n2nc(OCC(F)(F)F)n(C3CC3)c2=O)cc1SCC(F)(F)F", 3.72]
]}
